Target: long isoform of human D2 receptor (Homo sapiens, UniProt P14416)
Sequence (P14416 whole entry, canonical isoform): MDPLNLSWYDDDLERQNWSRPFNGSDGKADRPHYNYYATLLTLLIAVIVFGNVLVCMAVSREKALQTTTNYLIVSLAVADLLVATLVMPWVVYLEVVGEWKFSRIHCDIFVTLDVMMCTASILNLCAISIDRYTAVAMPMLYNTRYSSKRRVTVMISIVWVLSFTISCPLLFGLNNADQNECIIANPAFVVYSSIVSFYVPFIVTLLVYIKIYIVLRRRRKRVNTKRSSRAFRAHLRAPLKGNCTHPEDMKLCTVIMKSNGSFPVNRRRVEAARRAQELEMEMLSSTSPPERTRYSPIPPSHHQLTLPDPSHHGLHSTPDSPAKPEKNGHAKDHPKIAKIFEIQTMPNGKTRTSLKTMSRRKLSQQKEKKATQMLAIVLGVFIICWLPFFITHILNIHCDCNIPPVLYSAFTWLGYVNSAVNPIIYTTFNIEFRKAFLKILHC
Experiment: Arrestin Antagonist Assay (DRD2L PathHunter CHO-K1 cells, vs EC80 dopamine)
Settings: CHO-K1, read-out: β-arrestin (antagonist mode) Imax
Property: Emax

Exam item: Sample O=C1CCc2ccc(OCCCCN3CCc4c(Cl)cccc4C3)nc2N1 [Compound 76] — what was its Emax?
Marked response: < 10%

Exam item: For the compound O=C1CCc2ccc(OCCCCN3CCc4c(cccc4C(F)(F)F)C3)nc2N1 [Compound 77] , what Emax is on record?
Marked response: < 10%

Exam item: Quick one: Emax of O=c1ccc2ccc(OCCCCN3CCc4nn(-c5ccccn5)cc4C3)nc2[nH]1 [Compound 67] ?
Marked response: > 75%

Exam item: Tell me the measured Emax of O=C1NCCc2ccc(OCCCCN3CCc4ccsc4C3)nc2N1 [Compound 87] , please.
Marked response: > 75%

Exam item: Entry O=C1CCc2ccc(OCCCCN3CCc4cc(Cl)ccc4C3)nc2N1 [Compound 75] : reported Emax = ?
Marked response: > 75%

Exam item: Please give the measured Emax for this compound: CCOc1ccccc1N1CCN(CCCCOc2cccc(-c3cc[nH]n3)n2)CC1 [Compound 49]
Marked response: 50 to 75%

Exam item: Consider the compound Cn1cc2c(n1)CCN(CCCCOc1ccc3c(c1)NC(=O)CC3)C2 [Compound 24] and give its measured Emax.
Marked response: 25 to 50%

Exam item: Suppose we examine the compound c1cc(OCCCCN2CCc3ccccc3C2)nc(-c2c[nH]cn2)c1 [Compound 51] ; what Emax value has been reported?
Marked response: > 75%

Exam item: State the recorded Emax for this entry: N#Cc1cccc2c1CCN(CCCCOc1ccc3c(n1)NC(=O)CC3)C2 [Compound 78]
Marked response: < 10%

Exam item: Requested read-out: Emax. Entry: CN(C)c1ncnc2c1CCN(CCCCOc1ccc3c(c1)NC(=O)CC3)C2 [Compound 29]
Marked response: > 75%

Exam item: Bench note: what Emax did O=C1CCc2ccc(OCCCCN3CCc4c(cnn4-c4ccccc4)C3)cc2N1 [Compound 31] show?
Marked response: < 10%

Exam item: Please report the recorded Emax for N#Cc1cccc2c1CN(CCCCOc1ccc3c(n1)NC(=O)CC3)CC2 [Compound 80] .
Marked response: > 75%

Exam item: Item under review: Oc1cccc2ccc(OCCCCN3CCc4ccccc4C3)nc12 [Compound 12] . Reported Emax?
Marked response: > 75%

Exam item: Would you mind telling me what Emax value was observed for Clc1ccccc1N1CCN(CCCCOc2ccc3cn[nH]c3c2)CC1 [Compound 97] ?
Marked response: 50 to 75%

Exam item: State the recorded Emax for this entry: c1ccc(N2CCN(CCCCOc3ccc4cn[nH]c4n3)CC2)nc1 [Compound 4]
Marked response: < 10%

* * *

Target: long isoform of human D2 receptor (Homo sapiens)
Assay: cAMP HTRF Agonist Assay (DRD2L PathHunter CHO-K1 cells, forskolin-stimulated)
Conditions: CHO-K1, read-out: cAMP (agonist mode) Emax
Consider the following compounds; for each one, report its Emax.

Exam item: Param item = Clc1cccc(N2CCN(CCCCOc3ccc4cn[nH]c4n3)CC2)c1Cl [Compound 1] ; retrieve measured Emax.
Marked response: 25 to 50%

Exam item: What does the record list as Emax for O=C1CCc2ccc(OCCCCN3CCc4cc(C(F)(F)F)ccc4C3)nc2N1 [Compound 74] ?
Marked response: 10 to 25%

Exam item: Given the compound Oc1cccc2ccc(OCCCCN3CCc4c(Cl)cccc4C3)nc12 [Compound 20] , what is its reported Emax?
Marked response: 50 to 75%

Exam item: What value of Emax has been recorded for this entry: Cc1cccc(N2CCN(CCCCOc3ccc4cn[nH]c4n3)CC2)c1C [Compound 3]
Marked response: 10 to 25%

Exam item: What value of measured Emax is listed for Clc1cccc2c1CCN(CCCCOc1cccc(-c3cc[nH]n3)n1)C2 [Compound 45] ?
Marked response: > 75%

Exam item: Consider the compound shown here: O=C1NCCc2ccc(OCCCCN3CCc4cc(Cl)ccc4C3)nc2N1 [Compound 85] What is its recorded Emax?
Marked response: < 10%

Exam item: Query: Emax; subject: N#Cc1ccc2c(c1)CCN(CCCCOc1ccc3c(n1)NC(=O)CC3)C2 [Compound 73]
Marked response: < 10%

Exam item: Entry O=C1CCc2ccc(OCCCCN3CCc4nn(-c5ccccc5)cc4C3)cc2N1 [Compound 30] : reported Emax = ?
Marked response: 25 to 50%

Exam item: Quick one: Emax for COc1ccc2c(c1)CCN(CCCCOc1ccc3cccc(O)c3n1)C2 [Compound 13] ?
Marked response: < 10%

Exam item: Name the recorded Emax for COc1cccnc1N1CCN(CCCCOc2ccc3cn[nH]c3c2)CC1 [Compound 99] .
Marked response: 25 to 50%

Exam item: Requested field: Emax. Item: O=C1CCc2ccc(OCCCCN3CCn4cncc4C3)cc2N1 [Compound 33]
Marked response: < 10%

Exam item: Please look up its Emax: Clc1cccc(N2CCN(CCCCOc3ccc4cn[nH]c4c3)CC2)c1 [Compound 98]
Marked response: 50 to 75%

Data origin, for the record: patent US9951088B2
